system tested: PDGF-Ra (Homo sapiens)
Construct: host or cells: G-292 human osteosarcoma cells
Sequence (P16234 24-1089): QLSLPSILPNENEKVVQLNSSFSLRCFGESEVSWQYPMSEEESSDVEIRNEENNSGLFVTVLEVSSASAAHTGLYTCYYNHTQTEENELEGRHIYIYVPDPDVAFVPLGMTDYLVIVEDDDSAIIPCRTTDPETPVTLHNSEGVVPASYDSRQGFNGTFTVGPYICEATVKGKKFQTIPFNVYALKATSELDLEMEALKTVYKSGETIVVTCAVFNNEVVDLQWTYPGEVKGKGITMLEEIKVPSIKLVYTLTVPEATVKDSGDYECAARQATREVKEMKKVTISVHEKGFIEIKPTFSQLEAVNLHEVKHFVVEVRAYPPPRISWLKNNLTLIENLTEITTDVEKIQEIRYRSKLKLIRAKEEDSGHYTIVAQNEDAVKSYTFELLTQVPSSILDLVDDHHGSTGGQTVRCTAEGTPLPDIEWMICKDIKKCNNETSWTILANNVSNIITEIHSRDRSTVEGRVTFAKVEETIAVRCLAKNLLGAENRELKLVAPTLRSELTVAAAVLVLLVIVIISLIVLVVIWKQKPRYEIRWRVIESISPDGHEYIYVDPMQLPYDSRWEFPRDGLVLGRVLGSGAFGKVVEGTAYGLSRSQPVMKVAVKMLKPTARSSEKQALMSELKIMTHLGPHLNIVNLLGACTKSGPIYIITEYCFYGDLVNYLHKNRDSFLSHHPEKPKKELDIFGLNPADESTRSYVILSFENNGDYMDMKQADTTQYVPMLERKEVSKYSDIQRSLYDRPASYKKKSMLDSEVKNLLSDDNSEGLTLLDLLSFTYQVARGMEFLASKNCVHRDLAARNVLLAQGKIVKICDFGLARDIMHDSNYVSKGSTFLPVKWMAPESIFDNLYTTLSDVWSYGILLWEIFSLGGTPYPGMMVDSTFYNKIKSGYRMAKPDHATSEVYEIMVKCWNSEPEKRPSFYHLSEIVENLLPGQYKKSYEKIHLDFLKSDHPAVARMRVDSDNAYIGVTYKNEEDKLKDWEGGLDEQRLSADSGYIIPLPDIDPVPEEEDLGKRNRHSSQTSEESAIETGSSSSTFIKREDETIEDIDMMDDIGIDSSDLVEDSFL
assay info: Inhibitory activity against PDGF-Ra phosphorylation by PDGF-AA stimulation using G292
Format: cell-based
details: Pharmacological Test Example 1; > means inhibition at indicated concentration not more than 50%, < and << not less than 50%; read-out: PDGF (E) IC50
pIC50: −log10 of the molar value.
value type: pIC50

Below are worked cases with known answers.
{"columns": ["compound", "system tested", "pIC50"],
 "data": [
  ["COc1cc2ncnc(Oc3ccc(NC(=O)OCCCOc4ccc(F)cc4)c(C)c3C)c2cc1OC", "PDGF-Ra (Homo sapiens)", "< 7.00"],
  ["COc1cc2ncnc(Oc3ccc(NC(=O)OC(C)c4cccc(Cl)c4)cc3)c2cc1OC (centres unmarked)", "PDGF-Ra (Homo sapiens)", "> 8.00"],
  ["CCCC(CCC)OC(=O)Nc1ccc(Oc2ccnc3cc(OC)c(OC)cc23)c(C)c1C", "PDGF-Ra (Homo sapiens)", "> 8.00"],
  ["COc1cc2nccc(Oc3ccc(NC(=O)OCC4CC4)cc3)c2cc1OC", "PDGF-Ra (Homo sapiens)", "> 8.00"],
  ["COc1ccc(C(C)OC(=O)Nc2cc(C)c(Oc3ccnc4cc(OC)c(OC)cc34)cc2C)cc1 (centres unmarked)", "PDGF-Ra (Homo sapiens)", "< 7.00"]
]}

Enquiry: Give the value of pIC50 reported for the following: COc1cc2nccc(Oc3ccc(NC(=O)OCCCSc4cc(C)ccc4C)cc3)c2cc1OC
Return: > 8.00

Enquiry: Give the value of pIC50 reported for the following: COc1cc2nccc(Oc3ccc(NC(=O)OCCc4ccccc4)cc3)c2cc1OC
Return: > 8.00

Enquiry: Give the value of pIC50 reported for the following: COc1cc2nccc(Oc3ccc(NC(=O)OCCCSc4ccc(Cl)cc4C)cc3)c2cc1OC
Return: > 8.00

The measured values listed here are drawn from patent US7135466B2.
